The measured values listed here are drawn from PubChem BioAssay.

Attribute: z-score
Experiment: E. coli DRC41 culture turbidity changes, primary screen, E. coli filamentation inducer project, strain DRC41, OD650, 48 h (AID 1152);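 further: E. coli MC1000 strain DRC41 lacking acrAB efflux pump and sulA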
Details: E. coli DRC41 (acrAB sulA), higher = more signal, called active from +8 up or from −8 down
endpointName: z-score

[[record]]
compound = "CC(=O)NCCCC[C@@H]1NC(=O)[C@H]2C[C@@H](C(=O)NCCCCCCNC(=O)CS)[C@@H](c3ccc(O)cc3)N2C1=O"
measuredvalue = 0.0783

[[record]]
compound = "COCCOC(=O)N1C(=O)[C@@]2(c3cc(C#CCC(C(=O)OC)C(=O)OC)ccc31)[C@H](C(=O)N1CCN(c3ncccn3)CC1)[C@H]1C(=O)O[C@H](c3ccccc3)[C@H](c3ccccc3)N1[C@@H]2c1ccccc1OCCO"
measuredvalue = -0.646

[[record]]
compound = "C=C(CCCC)C(=O)CC[C@@H](OC(=O)c1ccccc1-c1ccccc1C(=O)O)c1ccc(OCCO)cc1"
measuredvalue = -0.181

[[record]]
compound = "CCCC[C@@H]1C[C@H]1[C@@H](NC(=O)c1ccco1)c1ccccc1C(F)(F)F"
measuredvalue = -1.91

[[record]]
compound = "CC(C)C[C@@H]1NC(=O)[C@H](C(C)C)NC(=O)[C@@]23C(=O)N[C@@H](Cc4ccccc4)C2[C@H](C)[C@@]2(C)O[C@H]2C3/C=C/CC/C=C/CNC1=O (some centres not stated)"
measuredvalue = -0.62

[[record]]
compound = "CCOC(=O)C1=C[C@@H](C(C)(C)C)N(S(=O)(=O)c2ccc(C)cc2)[C@H]1c1ccc(F)cc1"
measuredvalue = -1.68

[[record]]
compound = "CCC(CC)C(O)C1C=CC2C(=O)NC(=O)C2N1Nc1ccc(Cl)cc1Cl (configuration not stated)"
measuredvalue = -1.69


----------
Test: MM1S myeloma cell viability, profiling panel, resazurin fluorescence, basal, 24 h, PK04 Diversity Set (AID 1174);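 further: MM1S multiple myeloma cell line; test concentration not given here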
Details: higher = more signal, called active from +8 up or from −8 down
Class (required): determined from z-score; valid ranges are 0 = under -0.3, 1 = from -0.3 up to 0.1, 2 = 0.1 and over

[[record]]
molecule = "CN1C(=O)C2C=CC(C(O)c3ccc([N+](=O)[O-])cc3)N(N3CCCCC3)C2C1=O (stereo not given)"
labelvalue = 0

[[record]]
molecule = "C=CCOC(=O)[C@@H]1[C@H]2C(=O)O[C@H](c3ccccc3)[C@H](c3ccccc3)N2[C@H](c2ccc(OCCOC(=O)[C@@H]3C[C@@H]4C(=O)NCC(=O)N4[C@@H]3c3ccc(O)cc3)cc2)[C@@]12C(=O)Nc1ccc(I)cc12"
labelvalue = 2

[[record]]
molecule = "CCCC#C[Si](O[C@H](CC)c1cn(Cc2cccc(Cl)c2)nn1)(C(C)C)C(C)C"
labelvalue = 1

[[record]]
molecule = "Cc1nc2cc(Br)ccc2c(=O)o1"
labelvalue = 1

[[record]]
molecule = "COC(=O)C(CC#Cc1ccc2c(c1)[C@]1(C(=O)N2)[C@H](C(=O)Nc2nc3ccccc3s2)[C@H]2C(=O)O[C@H](c3ccccc3)[C@H](c3ccccc3)N2[C@@H]1c1ccccc1OCCO)C(=O)OC"
labelvalue = 0

[[record]]
molecule = "CN(C)CCCCCCNC(=O)[C@H]1C[C@H]2C(=O)N[C@@H](CCCCN)C(=O)N2[C@H]1c1cccc(OCCO)c1"
labelvalue = 1

[[record]]
molecule = "CO[C@H]1O[C@H](CO)[C@@H](OC(=O)Nc2ccc(Oc3ccccc3)cc2)[C@H](OC(=O)Nc2ccc3c(c2)OCO3)[C@H]1OC(=O)Nc1ccc2c(c1)OCO2"
labelvalue = 1

[[record]]
molecule = "COCCOC(=O)N1C(=O)[C@@]2(c3ccccc31)[C@H](c1ccccc1OCCO)N1[C@H](c3ccccc3)[C@H](c3ccccc3)OC(=O)[C@H]1[C@@H]2C(=O)N1CCN(c2ncccn2)CC1"
labelvalue = 0

[[record]]
molecule = "CCOC(=O)C[C@H]1[C@H](OC(=O)c2ccc(-c3ccccc3)cc2)[C@@H](NC(=O)Cc2ccc(OC)cc2)c2cc(OCCCO)ccc2N1C(=O)c1ccccc1"
labelvalue = 1

[[record]]
molecule = "CCOC(=O)C[C@H]1[C@H](OC(=O)c2ccc(C(=O)c3ccccc3)cc2)[C@@H](NC(=O)c2ccccc2)c2cc(OCCCO)ccc2N1C(=O)Cc1ccc(OC)cc1"
labelvalue = 2

[[record]]
molecule = "CC(C)[Si]1(C(C)C)O[C@@H](c2ccccc2)c2cc(-c3ccc(-c4ccc(Cl)c(Cl)c4)o3)nc(-c3ccccc3)c21"
labelvalue = 1

[[record]]
molecule = "C=C(CC1([C@@H](NP(=O)(c2ccccc2)c2ccccc2)[C@H]2C[C@@H]2CCCC)CC1)c1ccccc1"
labelvalue = 2

[[record]]
molecule = "C=CCOC(=O)[C@H]1[C@@H]2C(=O)O[C@@H](c3ccccc3)[C@@H](c3ccccc3)N2[C@@H](c2ccc(OCCOC(=O)[C@H]3C[C@H]4C(=O)N[C@@H](CCCCNC(C)=O)C(=O)N4[C@H]3c3cccc(OCCO)c3)cc2)[C@]12C(=O)Nc1ccccc12"
labelvalue = 2

[[record]]
molecule = "CC(C)C(O)C1C=CC2C(=O)N(c3ccccc3)C(=O)C2N1Nc1ccc([N+](=O)[O-])cc1 (stereo not given)"
labelvalue = 0


----------
Experiment: binders of probe aFST on microarray, primary screen, stem cell growth factor project, biochemical, small-molecule microarray, fluorescence 635/667 (AID 1086);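 further: score merges 667 nm fluorescence with signal-to-noise of each printed compound spot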
Conditions: higher = more signal
endpointName: composite z-score

[[record]]
compound = "OCCCC1=CC(c2cccs2)N(Cc2cc3c(cc2Br)OCO3)CC1 (configuration not stated)"
endpointname = "composite z-score"
measuredvalue = -0.0026

[[record]]
compound = "COc1ccc(C#Cc2ccc3c(c2)[C@]2(C(=O)N3)[C@H](C(=O)Nc3nc4ccccc4s3)[C@H]3C(=O)O[C@H](c4ccccc4)[C@H](c4ccccc4)N3[C@@H]2c2ccc(O)cc2)cc1"
endpointname = "composite z-score"
measuredvalue = 1.36

[[record]]
compound = "CC(C)[Si](C#Cc1ccc(Oc2ccccc2)cc1)(O[Si](C#Cc1ccc(Oc2ccccc2)cc1)(C(C)C)C(C)C)C(C)C"
endpointname = "composite z-score"
measuredvalue = -0.0273

[[record]]
compound = "C[N+](C)(C)CCCC[C@@H]1NC(=O)[C@H]2C[C@@H](C(=O)NCCCCCCNC(=O)CS)[C@@H](c3cccc(OCCO)c3)N2C1=O"
endpointname = "composite z-score"
measuredvalue = -0.948

[[record]]
compound = "COC(=O)C(CC#Cc1ccc2c(c1)[C@]1(C(=O)N2)[C@H](c2ccc(OCCO)cc2)N2[C@H](c3ccccc3)[C@H](c3ccccc3)OC(=O)[C@H]2[C@@H]1C(=O)N1CCc2cc(OC)c(OC)cc2C1)C(=O)OC"
endpointname = "composite z-score"
measuredvalue = 1.6

[[record]]
compound = "CN(C)CCCCCCNC(=O)[C@H]1C[C@H]2C(=O)N3CCC[C@H]3C(=O)N2[C@H]1c1ccc(O)cc1"
endpointname = "composite z-score"
measuredvalue = 0.2

[[record]]
compound = "CC(C)[Si]1(C(C)C)O[C@@H](c2ccccc2)c2cc(-c3ccc(-c4ccc(Cl)c(Cl)c4)o3)nc(-c3ccccc3)c21"
endpointname = "composite z-score"
measuredvalue = 0.0481


----------
Biological target: Pro-neuregulin-1, membrane-bound isoform (Homo sapiens)
Assay: NRG1 binders on small-molecule microarrays, primary screen, psychiatric disease protein project, biochemical, small-molecule microarray, fluorescence 635/667 (AID 1075);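 further: score combines 667 nm spot fluorescence with signal to noise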
Conditions: NRG1 binding, 635 nm fluorescence, higher = more signal
endpointName: composite z-score

[[record]]
compound = "CN1C(=O)C2C=CC(C(O)c3ccc([N+](=O)[O-])cc3)N(N3CCCCC3)C2C1=O (stereo not drawn)"
system = "Pro-neuregulin-1, membrane-bound isoform (Homo sapiens)"
endpointname = "composite z-score"
measuredvalue = 1.3

[[record]]
compound = "COc1ccc(C(O)C2C=CC3C(=O)N(Cc4ccccc4)C(=O)C3N2n2cnnc2)cc1OCc1ccccc1 (stereo not drawn)"
system = "Pro-neuregulin-1, membrane-bound isoform (Homo sapiens)"
endpointname = "composite z-score"
measuredvalue = 0.834

[[record]]
compound = "C=CCN1C(=O)[C@]2(O[C@H](CCn3cc([C@H](O)c4ccccc4)nn3)[C@@H]([Si](C)(C)c3ccc(OC)cc3)[C@@H]2C)c2ccccc21"
system = "Pro-neuregulin-1, membrane-bound isoform (Homo sapiens)"
endpointname = "composite z-score"
measuredvalue = 0.093


----------
Experiment: binders of probe aFGF10 on microarray, primary screen, stem cell growth factor project, biochemical, small-molecule microarray, fluorescence 635/667 (AID 1071);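 further: score merges 667 nm spot intensity and signal to noise from triplicate slides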
Conditions: higher = more signal
Attribute: composite z-score
endpointName: composite z-score

[[record]]
cpdsmiles = "CO[C@H]1O[C@H](CO)[C@@H](OC(=O)Nc2ccccc2)[C@H](OC(=O)Nc2ccccc2)[C@@H]1OC(=O)Nc1ccccc1"
endpointname = "composite z-score"
measuredvalue = 0.784

[[record]]
cpdsmiles = "CN(C)CCCCCCNC(=O)[C@H]1C[C@H]2C(=O)N[C@@H](CCCCN)C(=O)N2[C@H]1c1cccc(OCCO)c1"
endpointname = "composite z-score"
measuredvalue = 1.15

[[record]]
cpdsmiles = "COC(=O)[C@@]1(Cc2ccc(F)cc2)[C@H]2c3cc(C(=O)N(C)C)n(Cc4cc(F)c(F)c(F)c4)c3C[C@H]2CN1C(=O)c1ccccc1"
endpointname = "composite z-score"
measuredvalue = 0.593

[[record]]
cpdsmiles = "C=CCNC(=O)[C@H]1[C@@H]2C(=O)O[C@@H](c3ccccc3)[C@@H](c3ccccc3)N2[C@@H](c2ccccc2OCCO)[C@]12C(=O)Nc1ccc(C#CCCO)cc12"
endpointname = "composite z-score"
measuredvalue = -0.0077

[[record]]
cpdsmiles = "O=C1c2ccccc2[C@](Cc2ccccc2I)(C(=O)NCCN2CCOCC2)[C@H](c2ccc(CO)cc2)N1Cc1ccccc1Cl"
endpointname = "composite z-score"
measuredvalue = 0.915

[[record]]
cpdsmiles = "CC(=O)NCCCC[C@@H]1NC(=O)[C@H]2C[C@@H](C(=O)NCCCCCCNC(=O)CS)[C@@H](c3ccc(O)cc3)N2C1=O"
endpointname = "composite z-score"
measuredvalue = 0.545

[[record]]
cpdsmiles = "COc1ccc(CCNC(=O)[C@@]2(C)c3ccccc3C(=O)N(C(C)C)[C@H]2c2ccc(CO)cc2)cc1"
endpointname = "composite z-score"
measuredvalue = 0.4

[[record]]
cpdsmiles = "Cc1ccc(S[C@]2(C(=O)NCCCN(C)C)CC(=O)N(Cc3cc(C(F)(F)F)cc(C(F)(F)F)c3)[C@@H]2c2ccc(CO)cc2)cc1"
endpointname = "composite z-score"
measuredvalue = -0.145

